# target_under_test: TJP1_3, Q07157
# Sequence (Q07157 416-512): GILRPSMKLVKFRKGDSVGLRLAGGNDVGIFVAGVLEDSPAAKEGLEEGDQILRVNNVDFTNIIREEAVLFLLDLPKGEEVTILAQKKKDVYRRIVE
# protocol_text: holdup assay
# Design: key: below the threshold = too weak to quantify, mostly under pKd 3.1 to 4
# condition_summary: plain residues with an end cap or a label only (N-terminal biotin on a linker: ado-ado)
readout_label: pKd

binder	pKd
AHGSTRDQSI [KCNB1, Q14721]	3.48
SQDPKKPSRV [CBY2, Q8NA61]	below the threshold
SGDGKTSVWI [GJC1, P36383]	4.11
STYCDYTIEI [FAM71C, Q8NEG0]	below the threshold

Value lookup for pKd; key = EKPIDSETKM [SLC1A3, P43003]
below the threshold

Tell me the measured pKd of TKEIPNCTSV [SORCS3, Q9UPU3] , please.
below the threshold

For MQILSKPEFI [NPSR1, Q6W5P4] , what is its reported pKd?
below the threshold

# query: pKd of entry EFKQTSSFLV [JAM1, Q9Y624]
below the threshold
